# system name: T1, NaPi2b expressed on IGROV-1 cells (Homo sapiens, UniProt O95436)
# T1 construct: IGROV-1 cells express endogenous NaPi2b at a high level; endogenous in cells; host or cells: IGROV-1
# T1 sequence (O95436 1-690): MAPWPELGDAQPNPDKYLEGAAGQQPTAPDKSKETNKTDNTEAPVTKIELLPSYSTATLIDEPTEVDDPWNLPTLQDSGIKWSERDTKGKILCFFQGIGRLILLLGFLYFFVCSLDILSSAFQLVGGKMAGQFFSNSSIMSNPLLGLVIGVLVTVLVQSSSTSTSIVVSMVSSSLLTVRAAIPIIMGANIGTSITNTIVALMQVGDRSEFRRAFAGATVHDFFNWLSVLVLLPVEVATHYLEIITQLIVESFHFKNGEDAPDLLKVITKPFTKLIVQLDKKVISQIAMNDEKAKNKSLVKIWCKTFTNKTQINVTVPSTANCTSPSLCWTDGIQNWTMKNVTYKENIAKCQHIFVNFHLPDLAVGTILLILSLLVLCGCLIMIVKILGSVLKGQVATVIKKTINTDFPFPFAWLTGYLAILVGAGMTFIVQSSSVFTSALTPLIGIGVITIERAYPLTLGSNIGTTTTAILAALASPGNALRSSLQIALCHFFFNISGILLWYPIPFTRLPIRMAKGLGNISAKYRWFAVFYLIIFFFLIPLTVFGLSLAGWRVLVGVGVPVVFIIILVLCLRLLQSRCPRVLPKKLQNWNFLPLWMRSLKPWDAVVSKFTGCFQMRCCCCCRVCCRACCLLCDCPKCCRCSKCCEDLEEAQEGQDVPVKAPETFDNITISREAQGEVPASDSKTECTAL
# assay comment: Cellular binding of bivalent antibodies to IGROV-1 cells by flow cytometry (Example 13)
# assay conditions: IGROV-1, 24 hours at 4° C.; NB = no cellular binding
Measured Curve Hill Slope (h) by item
Write no unit; give the number alone.

molecule="v29459: humanized anti-NaPi2b IgG1/kappa antibody H2L1; VH SEQ ID NO:25, VL SEQ ID NO:28 (antibody, V domains shown, v29451, v29455, v29459 VH (H2); v29457, v29458, v29459, v29460 VL (L1)) VH: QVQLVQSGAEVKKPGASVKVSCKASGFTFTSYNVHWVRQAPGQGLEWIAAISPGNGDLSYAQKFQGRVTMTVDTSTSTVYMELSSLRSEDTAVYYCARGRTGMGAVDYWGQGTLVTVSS VL: DIQMTQSPSSLSASVGDRVTITCRASQDVYSYLNWYQQKPGKAPKLLIYYTSRLQSGVPSRFSGSGSGTDFTLTISSLQPEDFATYYCQQYNIFPWTFGQGTKLEIK" assay_result=1.2

Let's switch to this molecule now.
Supply reported Curve Hill Slope (h) belonging to this molecule: v29460: humanized anti-NaPi2b IgG1/kappa antibody H1L1; VH SEQ ID NO:24, VL SEQ ID NO:28 (antibody, V domains shown, v29452, v29456, v29460 VH (H1); v29457, v29458, v29459, v29460 VL (L1)) VH: QVQLVQSGAEVKKPGASVKVSCKASGFTFTSYNVHWVRQAPGQGLEWMGAISPGNGDLSYAQKFQGRVTMTRDTSTSTVYMELSSLRSEDTAVYYCARGRTGMGAVDYWGQGTLVTVSS VL: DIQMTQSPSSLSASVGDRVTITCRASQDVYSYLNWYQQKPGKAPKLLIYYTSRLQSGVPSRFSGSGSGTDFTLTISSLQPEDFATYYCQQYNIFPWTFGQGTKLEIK
1.2
